# Test system: Trypanosoma brucei rhodesiense
# assay-text: […] activity against Trypanosoma brucei rhodesiense Wellcome CT infected in ICR/HA mouse assessed as curated mouse at 106 mg/kg, po treated within 2 hrs of parasite infection measured up to 30 days
# Assay type: functional, organism-based
# Design: dose 106 mg/kg
The source made the active and inactive calls. The rule behind the calls is not given here.
value-type: Activity

[[record]]
entry_smiles = "FC(F)(F)c1ccc(C[P+](c2ccccc2)(c2ccccc2)c2ccccc2)cc1.[Cl-]"
experimental_value = "inactive"

[[record]]
entry_smiles = "Cc1ccc([P+](Cc2ccccc2)(c2ccccc2)c2ccccc2)cc1.[Cl-]"
experimental_value = "inactive"

[[record]]
entry_smiles = "Cc1ccc(C[P+](c2ccccc2)(c2ccccc2)c2ccccc2)cc1"
experimental_value = "inactive"

